Tested on: RAW-Dual (murine macrophage reporter line)
testName: NF-kB reporter (SEAP) activity fold change vs agonist alone; higher = enhanced NF-kB activity
runParameters: modulator concentration 10 µM; agonist: MPLA […]
Label scheme for NF-kB reporter: lower than 1 is no, 1 and above is yes.

> print(dat)
                                    molecule  class
 1  Nc1ccn(C2OC(CO)C(O)C2O)c(=O)n1 (stereo not drawn)    yes
 2  Cc1cc(C)c(NC(=O)COc2ccc(C)cc2C(C)(C)C)c(C)c1     no
 3  CC1=NN(c2ccc(S(N)(=O)=O)cc2)C(=O)C1=Cc1ccc(C)s1    yes
 4  c1ccc(OCCOc2ccc(Nc3ccnc4cc5ccccc5cc34)cc2)cc1    yes
 5    OCCN1CCN(CCCN2c3ccccc3C=Cc3ccccc32)CC1    yes
 6  CCN(CC)Cc1ccc(Nc2ccnc3cc(Cl)ccc23)cc1O.Cl.Cl     no
 7  Cl.Cl.OCCN1CCN(CCCN2c3ccccc3Sc3ccc(C(F)(F)F)cc32)CC1     no
 8  O=C(C(c1ccccc1)c1ccccc1)N1CCC(n2nccn2)CC1     no
 9  Cc1cc(C(=O)N2CCC(Oc3cccc4cccnc34)CC2)n(C)n1    yes
10    Cc1ccc(C23CC4CC(CC(CN)(C4)C2)C3)cc1.Cl    yes
11    CCN(CC)c1ccc(C=NNC(=O)c2ccccc2I)c(O)c1    yes
12  S=c1n(CN2CCOCC2)nc(-c2ccccc2Br)n1-c1ccccc1     no
13  Cc1ccc(NC(=O)CN2C(=O)c3ccccc3C2=O)c(C(=O)O)c1    yes
14  c1ccc(CC(=NNc2ccccc2)c2ccc(-c3ccccc3)cc2)cc1    yes
15     Clc1ccc(-c2nc(N3CCCCC3)nc3ccccc23)cc1    yes
16  Cc1cccc(C)c1OCC(=O)N[C@@H](Cc1ccccc1)[C@@H](O)C[C@H](Cc1ccccc1)NC(=O)[C@H](C(C)C)N1CCCNC1=O    yes
17          Nc1nc(N)c2nc(-c3ccccc3)c(N)nc2n1     no
18   COc1ccc(Nc2nc(N3CCCCC3)c3cnn(C)c3n2)cc1    yes
19     O=S1(=O)N=C(SCc2ccccc2)Nc2ccc(Cl)cc21    yes

---

Test system: RAW-Dual (murine macrophage reporter line)
testName: NF-kB reporter (SEAP) activity fold change vs agonist alone; higher = enhanced NF-kB activity
runParameters: modulator concentration 10 µM; agonist: CpG ODN 1826 0.5 ug/mL
NF-kB reporter: recorded values
measuredQuantity: NF-kB reporter

> print(dat)
                                    compound  experimentalvalue
 1  O=C(O)CSCC(=O)NC1CCSC1=O (stereo not drawn)              0.824
 2  Cl.Nc1c(Br)cc(Br)cc1CNC1CCC(O)CC1 (stereo not drawn)              0.911
 3  COc1cc(C=NN2C(=O)c3cccc4cccc(c34)C2=O)cc(Br)c1OC               1.02
 4  COc1ccc(C=C2C(=O)N(c3ccc(C(=O)O)cc3)N=C2C)cc1              0.794
 5  CC1=C(CC(=O)O)c2cc(F)ccc2/C1=C\c1ccc(S(C)=O)cc1 (stereo not drawn)              0.984
 6  N[C@@H](Cc1cc(I)c(Oc2cc(I)c(O)c(I)c2)c(I)c1)C(=O)O              0.496
 7  COc1ccc(-c2[nH]c3ccccc3c2SCCNC(=O)c2ccccc2)cc1               1.12
 8             c1coc(CNc2nc(-c3ccncc3)cs2)c1              0.857
 9                     N[C@@H](CSCCCO)C(=O)O              0.987
10  Cc1cn([C@@H]2C[C@@H](O)[C@H](CO)O2)c(=O)[nH]c1=O               1.12
11  Nc1nc2c(ncn2C2CC(O)C(CO)O2)c(=O)[nH]1 (stereo not drawn)               0.96
12  COc1ccc(CN(CCN(C)C)c2ccccn2)cc1.O=C(O)/C=C\C(=O)O              0.568
13  Cl.NC1=NCC2c3ccccc3Cc3ccccc3N12 (stereo not drawn)               1.03
14  Cc1ccc(CSc2nc3sc4c(c3c(=O)n2-c2ccccc2)CC(C)(C)OC4)c(C)c1              0.984
15  CC(=NNC(=O)CSc1nc2ccccc2n1Cc1ccccc1)c1ccc(Br)cc1              0.996
16  CCC(=O)N1c2ccccc2NC2=C(C(=O)CC(c3ccccc3F)C2)C1c1ccc(C)cc1 (stereo not drawn)               1.02
17     O=C(NCC#CCN1CCc2ccccc2C1)c1cccc(Br)c1               0.87
18       COc1ccc(-n2cnc3cc(NC(C)=O)ccc32)cc1              0.978
19  CN(C(=O)COc1coc(CN2CCN(c3ccccc3)CC2)cc1=O)c1ccccc1              0.931
20  CCOC(=O)C1C(=O)C=C(C)C(C(=O)OCC)C1c1ccc(Br)cc1 (stereo not drawn)               1.05
21  CC(Cc1ccc(O)c(O)c1)(NN)C(=O)O (stereo not drawn)              0.957
22  O=C(Cc1ccccc1)NCC(O)Cn1ccccc1=O (stereo not drawn)               0.84
23  O=c1cc(O)nc(SCc2c(F)c(F)c(F)c(F)c2F)[nH]1               1.01
24  COc1ccc2c(C)nc(Nc3nc(C)cc(-c4ccccc4)n3)nc2c1              0.791
25  CN1CCN(CCCN2c3ccccc3Sc3ccc(Cl)cc32)CC1.O=C(O)/C=C\C(=O)O.O=C(O)/C=C\C(=O)O               1.01
26  COS(=O)(=O)[O-].C[N+]1(C)CCC(=C(c2ccccc2)c2ccccc2)CC1               1.35
27  COc1ccccc1-c1cc(-c2ccccc2)nc(SCC(N)=O)c1C#N               1.06
28  Cc1cc(C(=O)Nc2ccc(-n3nnn(C)c3=O)cc2)c(C)o1               1.01
29  CC(C)NCC(O)COc1cccc2ccccc12.Cl (stereo not drawn)              0.858
30  CC1CC(=O)C2=C(C1)OC(N)=C(C#N)C2c1ccc(Cl)cc1 (stereo not drawn)              0.905
31    CCc1ccccc1Nc1nc(-c2sc(NC(C)=O)nc2C)cs1               0.65
32  COc1ccc(CCNc2cc(C)nc3cc(-c4ccc(OC)c(OC)c4)nn23)cc1OC               1.18
33  COc1cc(C(=O)O)ccc1NC(=O)[C@@H]1N[C@@H](CC(C)(C)C)[C@](C#N)(c2ccc(Cl)cc2F)[C@H]1c1cccc(Cl)c1F               0.35
34    NS(=O)(=O)c1cc(Cl)c(Cl)c(S(N)(=O)=O)c1               1.15
35                Cc1cc(C(=O)NNCc2ccccc2)no1               1.09
36  CN1CCN(CCCN2c3ccccc3Sc3ccc(S(=O)(=O)N(C)C)cc32)CC1              0.413
37  COCCOC(=O)C1=C(C)NC(C)=C(C(=O)OC(C)C)C1c1cccc([N+](=O)[O-])c1 (stereo not drawn)              0.837
38  Nc1nc(Cl)nc2c1ncn2[C@@H]1O[C@H](CO)[C@@H](O)[C@@H]1F               2.13
39        Cc1ccc(OCCCOc2cccc3cccnc23)c(Cl)c1              0.808
40  CN(C)C/C=C/C(=O)Nc1cc2c(Nc3ccc(F)c(Cl)c3)ncnc2cc1O[C@H]1CCOC1             0.0842
41  C[C@@H](Oc1cc(-c2cnn(C3CCNCC3)c2)cnc1N)c1c(Cl)ccc(F)c1Cl              0.149
42  O=[N+]([O-])c1ccc(N2CCOCC2)c(-c2nnn[nH]2)c1               0.98
43         NC(=O)CSc1nc(O)cc(=O)n1-c1ccccc1F              0.987
